- ASSAY SYSTEM: Rat RGMa-His (rat) (UniProt D4A188)
- TEST: BIAcore; Ab captured on CM5 chip via anti-hIgG Fc Ab, antigen injected; 1:1 Langmuir fit
MEASUREMENT LABEL: pKd
// scale note: pKd = -log10(conc_M); give the bare number

What measured pKd goes with h5F9.AM11 (antibody, V domains shown, also called RGMA-h5F9AM; 11; RGMA-h5F9pJP302/pJP 303 hIgG1/K mut) VH: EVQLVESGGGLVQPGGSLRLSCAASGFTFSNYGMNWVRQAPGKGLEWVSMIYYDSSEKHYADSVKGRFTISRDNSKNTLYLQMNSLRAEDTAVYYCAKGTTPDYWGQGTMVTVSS VL: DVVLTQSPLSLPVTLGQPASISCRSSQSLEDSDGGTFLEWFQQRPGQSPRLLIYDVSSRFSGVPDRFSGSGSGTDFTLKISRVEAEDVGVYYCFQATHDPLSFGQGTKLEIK ?
10.13
